# credit: ChEMBL document CHEMBL1142504

- System: Human betaherpesvirus 5
- experiment.summary: Antiviral activity against human cytomegalovirus AD169 in HEL cells assessed as inhibition of viral cytopathicity
- Type: functional, organism-based
- measurement.conditions: Human betaherpesvirus 5, AD169, HEL
# maps each entry to its EC50
assay.metric: EC50

1) Cc1cc(-n2ccc3ccccc32)cn2c(CSCCc3ccccc3)cnc12 | > 4 µg/mL
2) Cc1cc(-n2cccc2)cn2c(CSCc3ccccc3)cnc12 | 1.6 µg/mL
3) Cc1cc(-n2cccc2)c2ncc(CSCc3ccccc3)n2c1 | 6.3 µg/mL
4) Cc1cc(Sc2ccc(O)cc2)cn2c(CSCCc3ccccc3)cnc12 | > 0.8 µg/mL
5) Cc1cc(N2CCCC2=O)cn2c(CSCCc3ccccc3)cnc12 | > 20 µg/mL
6) Cc1cc(-n2ccnc2)c2ncc(CSCCc3ccccc3)n2c1 | 3.1 µg/mL
7) Cc1cc(-c2ccco2)cn2c(CSCCc3ccccc3)cnc12 | > 0.8 µg/mL
8) Cc1cc(N2CCCC2)c2ncc(CSCc3ccccc3)n2c1 | 10 µg/mL
9) C=Cc1ccc(-c2cc(C)c3ncc(CSCCc4ccccc4)n3c2)cc1 | > 4 µg/mL
10) Cc1cc(N2CCCC2)c2ncc(CSCCc3ccccc3)n2c1 | > 20 µg/mL
11) Cc1cc(Sc2ccc(Cl)cc2)c2ncc(CSCCc3ccccc3)n2c1 | > 0.8 µg/mL
12) Cc1cc(N2CCCC2)cn2c(CSCCc3ccccc3)cnc12 | 4 µg/mL
13) Cc1cc(Sc2ccc(Cl)cc2)cn2c(CSCCc3ccccc3)cnc12 | > 4 µg/mL
14) Cc1cc(C#N)cn2c(CSCCc3ccccc3)cnc12 | 8.9 µg/mL
15) Cc1cc(-c2ccsc2)c2ncc(CSCc3ccccc3)n2c1 | 4 µg/mL
16) Cc1cc(N2CCOCC2)cn2c(CSCCc3ccccc3)cnc12 | > 20 µg/mL
17) Cc1cc(Sc2ccc(N)cc2)cn2c(CSCCc3ccccc3)cnc12 | 1.8 µg/mL
18) Cc1cc(-n2ccc3cccnc32)cn2c(CSCCc3ccccc3)cnc12 | 2 µg/mL
19) Cc1cc(-n2ccc3ccccc32)c2ncc(CSCCc3ccccc3)n2c1 | 20 µg/mL
20) Cc1cc(-c2ccoc2)c2ncc(CSCCc3ccccc3)n2c1 | 1.8 µg/mL
21) Cc1cc(-n2cccc2)cn2c(CSCCc3ccccc3)cnc12 | > 0.8 µg/mL
22) Cc1cc(N2CCN(C)CC2)cn2c(CSCCc3ccccc3)cnc12 | > 20 µg/mL
23) Cc1cc(Sc2ccc(O)cc2)c2ncc(CSCCc3ccccc3)n2c1 | > 0.8 µg/mL
24) Cc1cc(-n2ccnc2)cn2c(CSCCc3ccccc3)cnc12 | 8.9 µg/mL
25) Cc1cc(-c2ccc3[nH]ccc3c2)cn2c(CSCCc3ccccc3)cnc12 | > 20 µg/mL
26) Cc1cc(-n2cccc2)c2ncc(CSCCc3ccccc3)n2c1 | 1.8 µg/mL
27) Cc1cc(-c2ccco2)c2ncc(CSCCc3ccccc3)n2c1 | 2.5 µg/mL
28) Cc1cc(-c2ccoc2)cn2c(CSCCc3ccccc3)cnc12 | > 0.8 µg/mL
29) Cc1cc(-c2ccsc2)cn2c(CSCc3ccccc3)cnc12 | > 0.8 µg/mL
30) Cc1cc(N2CCCC2=O)c2ncc(CSCCc3ccccc3)n2c1 | > 4 µg/mL
31) Cc1cc(-n2ccc3cccnc32)c2ncc(CSCCc3ccccc3)n2c1 | 4 µg/mL
32) Cc1cc(N2CCOCC2)c2ncc(CSCCc3ccccc3)n2c1 | > 4 µg/mL
33) Cc1cc(-c2ccc(C=O)cc2)cn2c(CSCCc3ccccc3)cnc12 | 12.6 µg/mL
34) Cc1cc(C#N)c2ncc(CSCCc3ccccc3)n2c1 | 2.2 µg/mL
35) C=Cc1ccc(-c2cc(C)c3ncc(CSCc4ccccc4)n3c2)cc1 | > 100 µg/mL
